Cited source: patent US20060154970A1

Exercise: for every item that follows, state its recorded melting point.

Fill in the blank: the reported melting point of `CC(C)[C@H]1CC[C@H](C(=O)N[C@@H](Cc2ccc(OCc3ccccc3)cc2)C(=O)O)CC1` is ____.
140 to 142 °C (dec.)

Fill in the blank: the reported melting point of `CC(C)[C@H]1CC[C@H](C(=O)N[C@@H](Cc2ccc(O)cc2)C(=O)O)CC1` is ____.
156 to 157 °C

Fill in the blank: the reported melting point of `COc1ccc(C[C@H](NC(=O)[C@H]2CC[C@H](C(C)C)CC2)C(=O)O)cc1` is ____.
149 to 151 °C

Fill in the blank: the reported melting point of `CC(C)[C@H]1CC[C@H](C(=O)N[C@@H](Cc2ccc(OCCN(C)c3ccccn3)cc2)C(=O)O)CC1` is ____.
158 to 160 °C

Fill in the blank: the reported melting point of `CC(C)[C@H]1CC[C@H](C(=O)N[C@H](Cc2ccc(O)cc2)C(=O)O)CC1` is ____.
156 to 157 °C

Fill in the blank: the reported melting point of `Cc1oc(-c2ccccc2)nc1CCOc1ccc(C[C@@H](NC(=O)[C@H]2CC[C@H](C(C)C)CC2)C(=O)O)cc1` is ____.
151 to 153 °C (dec.)

Fill in the blank: the reported melting point of `CCOc1ccc(C[C@@H](NC(=O)[C@H]2CC[C@H](C(C)C)CC2)C(=O)O)cc1` is ____.
168 to 170 °C

Fill in the blank: the reported melting point of `CCCCOc1ccc(C[C@@H](NC(=O)[C@H]2CC[C@H](C(C)C)CC2)C(=O)O)cc1` is ____.
120 to 121 °C

Fill in the blank: the reported melting point of `CCOc1ccc(C[C@H](NC(=O)[C@H]2CC[C@H](C(C)C)CC2)C(=O)O)cc1` is ____.
168 to 170 °C

Fill in the blank: the reported melting point of `CC(C)[C@H]1CC[C@H](C(=O)N[C@H](Cc2ccc(OCc3ccc(C(F)(F)F)cc3)cc2)C(=O)O)CC1` is ____.
171 to 172 °C

Fill in the blank: the reported melting point of `CC(C)[C@H]1CC[C@H](C(=O)N[C@H](Cc2ccc(OCc3ccccc3)cc2)C(=O)O)CC1` is ____.
140 to 142 °C (dec.)

Fill in the blank: the reported melting point of `CC(C)[C@H]1CC[C@H](C(=O)N[C@@H](Cc2ccc(OCc3ccc(C(F)(F)F)cc3)cc2)C(=O)O)CC1` is ____.
171 to 172 °C

Fill in the blank: the reported melting point of `CC(C)[C@H]1CC[C@H](C(=O)N[C@@H](Cc2ccc(OCCN(C)c3nc4ccccc4o3)cc2)C(=O)O)CC1` is ____.
179 to 180 °C (dec.)

Fill in the blank: the reported melting point of `CC(C)[C@H]1CC[C@H](C(=O)N[C@H](Cc2ccc(OCCN(C)c3nc4ccccc4o3)cc2)C(=O)O)CC1` is ____.
179 to 180 °C
